# Tested on: 966289-007-R4-J1-PDC complex spheroid viability
# Assay procedure: Anticancer human tumor 966289-007-R4-J1-PDC patient-derived pancreatic adenocarcinoma cell line growth inhibition [RAS]
# Stated conditions: second compound 1 µM; first compound 0.0316 µM; stronger effect = lower value
The following molecules are shown together with reported viability, T/C values.

Some entries whose results are on file:
Molecule | Property label | Measured result
CC(=O)OC12COC1CC(O)C1(C)C(=O)C(O)C3=C(C)C(OC(=O)C(O)C(NC(=O)OC(C)(C)C)c4ccccc4)CC(O)(C(OC(=O)c4ccccc4)C21)C3(C)C (stereo not drawn) + C=CC(=O)N1CCN(c2nc(OCC3CCCN3C)nc3c(F)c(-c4nc(N)cc(C)c4C(F)(F)F)c(Cl)cc23)C(C)C1 | viability, T/C | 8.02%
CCN1CCN(Cc2ccc(Nc3ncc(F)c(-c4cc(F)c5nc(C)n(C(C)C)c5c4)n3)nc2)CC1 + C#Cc1c(F)ccc2cc(O)cc(-c3ncc4c(N5CC6CCC(C5)N6)nc(OCC56CCCN5CC(F)C6)nc4c3F)c12 | viability, T/C | 116%
CC(=O)OC12COC1CC(O)C1(C)C(=O)C(O)C3=C(C)C(OC(=O)C(O)C(NC(=O)OC(C)(C)C)c4ccccc4)CC(O)(C(OC(=O)c4ccccc4)C21)C3(C)C (stereo not drawn) + C#Cc1c(F)ccc2cc(O)cc(-c3ncc4c(N5CC6CCC(C5)N6)nc(OCC56CCCN5CC(F)C6)nc4c3F)c12 | viability, T/C | 9.72%
NC1c2ccccc2OC12CCN(c1cnc3c(N4CCCc5ncccc54)n[nH]c3n1)CC2 (stereo not drawn) + C=CC(=O)N1CCN(c2nc(OCC3CCCN3C)nc3c(F)c(-c4nc(N)cc(C)c4C(F)(F)F)c(Cl)cc23)C(C)C1 | viability, T/C | 105%
CC(C)NCC(C(=O)N1CCN(c2ncnc3c2C(C)CC3O)CC1)c1ccc(Cl)cc1 (stereo not drawn) + C#Cc1c(F)ccc2cc(O)cc(-c3ncc4c(N5CC6CCC(C5)N6)nc(OCC56CCCN5CC(F)C6)nc4c3F)c12 | viability, T/C | 104%
CC(C)n1nc(-c2ccc3oc(N)nc3c2)c2c(N)ncnc21 + C=CC(=O)N1CCN(c2nc(OCC3CCCN3C)nc3c(F)c(-c4nc(N)cc(C)c4C(F)(F)F)c(Cl)cc23)C(C)C1 | viability, T/C | 47.1%

Query (molecule): Nc1ccn(C2OC(CO)C(O)C2(F)F)c(=O)n1 (stereo not drawn) + C#Cc1c(F)ccc2cc(O)cc(-c3ncc4c(N5CC6CCC(C5)N6)nc(OCC56CCCN5CC(F)C6)nc4c3F)c12 ; field requested: viability, T/C
2.02%

Now give it for O=C(c1ccc(F)c(F)c1Nc1ccc(I)cc1F)N1CC(O)([C@@H]2CCCCN2)C1 + C#Cc1c(F)ccc2cc(O)cc(-c3ncc4c(N5CC6CCC(C5)N6)nc(OCC56CCCN5CC(F)C6)nc4c3F)c12 too.
65%

* * *

# System: 966289-007-R4-J1-PDC complex spheroid viability
# Assay procedure: Anticancer human tumor 966289-007-R4-J1-PDC cell line growth inhibition [RAS];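 further: spheroids exposed to agents for one week before readout; percent viability relative to DMSO vehicle control wells as 100%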
# Stated conditions: second compound 0.03 µM; first compound 1 µM; stronger effect = lower value
Reported viability, T/C values for the following compounds.

Illustrative cases are given below, each with its answer.
Compound | Tested on | viability, T/C
Nc1ccn(C2OC(CO)C(O)C2(F)F)c(=O)n1 (centres undefined) + CCn1c(-c2cccnc2C(C)OC)c2c3cc(ccc31)N1CCOC(CC(NC(=O)C(C(C)C)N(C)C(=O)C3(F)CCN(C(=O)C#CC(C)(C)N(C)C)CC3)C(=O)N3CCCC(N3)C(=O)OCC(C)(C)C2)C1 | 966289-007-R4-J1-PDC complex spheroid viability | 0.98%
Nc1ccn(C2OC(CO)C(O)C2(F)F)c(=O)n1 (centres undefined) + CCn1c(-c2cc(N3CCN(C)CC3)cnc2C(C)OC)c2c3cc(ccc31)-c1csc(n1)CC(NC(=O)C1CC1C)C(=O)N1CCCC(N1)C(=O)OCC(C)(C)C2 | 966289-007-R4-J1-PDC complex spheroid viability | 1.12%
CCN1CCN(Cc2ccc(Nc3ncc(F)c(-c4cc(F)c5nc(C)n(C(C)C)c5c4)n3)nc2)CC1 + CCn1c(-c2cccnc2C(C)OC)c2c3cc(ccc31)N1CCOC(CC(NC(=O)C(C(C)C)N(C)C(=O)C3(F)CCN(C(=O)C#CC(C)(C)N(C)C)CC3)C(=O)N3CCCC(N3)C(=O)OCC(C)(C)C2)C1 | 966289-007-R4-J1-PDC complex spheroid viability | 78.9%

Pending compound:
Fill blank: measured viability, T/C of the compound CC(=O)OC12COC1CC(O)C1(C)C(=O)C(O)C3=C(C)C(OC(=O)C(O)C(NC(=O)OC(C)(C)C)c4ccccc4)CC(O)(C(OC(=O)c4ccccc4)C21)C3(C)C (centres undefined) + CCn1c(-c2cc(N3CCN(C)CC3)cnc2C(C)OC)c2c3cc(ccc31)-c1csc(n1)CC(NC(=O)C1CC1C)C(=O)N1CCCC(N1)C(=O)OCC(C)(C)C2 is ____.
20.9%
